# assayed.system: T1, 017-mut1 peptide (…)/HLA-A*02:01 complex on T2 cells (human)
# T1 construct: Alanine mutant of Foxp3-7 at position 1, pulsed onto T2 cells; also called EXT017-mut1
# assay.name: flow cytometry, phage on peptide-loaded T2 cells
measured.endpoint: MFI

Please review the following examples before continuing.
EXT017-54 scFv phage clone (scFv, full-length scFv with His+HA tags; also called EXT017-54 phage) scFv: QAVLTQPPSLSGGPRQRVTISCSGSTSNIGKNGVSWYQQLPGKAPKLLIYNDHLLSSGVSDRFSGSKSGTSASLAISGLQSDDEADYYCATWDDTLDLPLFGGGTKVTVLGSRGGGGSGGGGSGGGGSLEMAQMQLVQSGAEVEKPGASVKLSCKASGGTFSSYAISWVRQAPGQGLEWMGGIIPIFGTANYAQKFQGRVTITADESTSTAYMELSSLRSEDTAVYYCARPSYYSIKSAWDHWGQGTLVTVSSTSGQAGQHHHHHHGAYPYDVPDYAS : 23500
EXT017-32 scFv phage clone (scFv, also called EXT017-32 phage; phage clone #32) scFv: QSVLTQPPSVSVAPGKTARITCGGNNIGSKSVHWYQQKPGQAPVLVIYYDSDRPSGIPERFSGSNSGNTATLTISRVEAGDEADYYCQVWDSSSDHYVFGTGTKVTVLGSRGGGGSGGGGSGGGGSLEMAEVQLVESGGGVVQPGRSLRLSCAASGFTFNNHAMHWVRQAPGKGLEWVAVISFDGDDKFYADSVKGRFTISRDNSRNTLFLQMNNLRPEDTAVYYCSRDPYHFASGSYSYFDYWGQGTLVTVSSTSGQAGQHHHHHHGAYPYDVPDYAS : 15100
EXT017-27 scFv phage clone (scFv, full-length scFv with His+HA tags; also called EXT017-27 phage; phage clone #27) scFv: QAVLTQPPSVSVAPGKTARLTCGGNNIGSESVHWYQQKPGQAPLLVVYDDDDRPSGIPERFSGSNSGNTATLTISRVEAGDEADYYCQVWDRSSDHWFFGGGTKLTVLGSRGGGGSGGGGSGGGGSLEMAQVQLVQSGAEVKKPGASVKVSCKASGYTFTNYYIHWVRQAPGQGLEWMGIIRPSGGITNYAQKFQGRVSMTRDTSTSTVYMELSSLRSEDTAVYYCARSWDYFASNDFWGQGTLVTVSSTSGQAGQHHHHHHGAYPYDVPDYAS : 222
EXT017-28 scFv phage clone (scFv, full-length scFv with His+HA tags; also called EXT017-28 phage; phage clone #28) scFv: QSVLTQPPSVSGAPGQRVTISCTGSSSNIGAGYDVHWYQQLPGTAPKLLIYGNSDRPSGVPDRFSGSKSGTSASLAITGLQAEDEADYYCQSYDSSLSGYVFGTGTKVTVLGSRGGGGSGGGGSGGGGSLEMAQMQLVQSGAEVKKPGSSVKVSCKASGGTFSTYAISWVRQAPGQGLEWMGGIIPIFGTANYAQKFQGRVTITADKSTSTAYMEVRNLRSEDTAVYYCARAEYVYGEYDQWGQGTLVTVSSTSGQAGQHHHHHHGAYPYDVPDYAS : 20100
EXT017-20 scFv phage clone (scFv, full-length scFv with His+HA tags; also called EXT017-20 phage) scFv: QSVVTQPPSVSAAPGQKVTISCSGSSSNIGAGYDVHWYQQLPGTAPKLLIYGNSNRPSGVPDRFSGSKSGTSASLAITGLQAEDEADYYCQSYDSSLSGSVFGGGTKLTVLGSRGGGGSGGGGSGGGGSLEMAEVQLVQSGAEVKKPGSSVKVSCKASGGTFSSYAISWVRQAPGQGLEWMGGIIPIFGTANYAQKFQGRVTITADESTSTAYMELSSLRSEDTAVYYCARYSYKYGELDTWGQGTLVTVSSTSGQAGQHHHHHHGAYPYDVPDYAS : 4070

Now look at this one.
Determine from records and report MFI for EXT017-17 scFv phage clone (scFv, fusion to the phage coat protein not described; also called EXT017-17 phage; phage clone #17) scFv: QSVLTQPPSVSGAPGQRVTISCTGSSSNIGAGYDVHWYQQLPGTAPKLLIYGNSNRPSGVPDRFSGSKSGTSASLAITGLQAEDEADYYCQSYDSSLSGYVFGTGTKVTVLGSRGGGGSGGGGSGGGGSLEMAEVQLVQSGAEVKKPGSSVKVSCKASGDTFSRYAISWVRQAPGQGLEWMGRIIPIFGTPNYAQKFQGRVTITADEFTSTAYMELSSLRSEDTAMYYCARSIYRYSEYDHWGQGTLVTVSSTSGQAGQHHHHHHGAYPYDVPDYAS 7880
